// merged dataset of pIC50 values, system = Serine/threonine-protein kinase mTOR (Homo sapiens), multiple refs
pIC50: −log10 of the molar value.

• Nc1ccc(-c2nc(N3CCOCC3)c3cc(-c4cccc(NS(=O)(=O)CCCF)c4F)cc(N4CCOCC4)c3n2)cn1 = 7.00 to 9.00
• CC(C)(O)C(=O)Nc1cccc(-c2cnc3c(N4CCOCC4)nc(-c4cnc(N)nc4)nc3c2)c1 = > 7.30
• CC1CN(c2nc(-c3ccc(NC(=O)Nc4ccc(C(=O)N(C)C)cc4)cc3)nc3cc(-c4cncnc4)ccc23)CCO1 (stereo not drawn) = > 7.30
• CCNC(=O)Nc1ccc(-c2nc3c(c(N4CCOC[C@@H]4CC)n2)[C@H](C)S(=O)(=O)C3)cc1 = > 7.00
• COc1ncc(-c2ccc3ncc(C#CCO)n3c2)cc1NS(=O)(=O)c1ccc(F)cc1F = 7.47

[ask] Need pIC50 of CC(C1CCOCC1)n1c(=O)[nH]c2ncc(-c3cnc4[nH]ccc4c3)cc21 (stereo not drawn) , thanks.
[reply] > 7.30

[ask] Which pIC50 value belongs to `C=CC(=O)Nc1cccc(-n2c(=O)ccc3cnc4ccc(-c5cn[nH]c5)cc4c32)c1` ?
[reply] 7.39

[ask] // pIC50 lookup, key: `C[C@@H](O)C(=O)N1CCC(c2nc3c(-c4ccc(-c5ccccc5)nc4)cnn3c3c2C(=O)CCN3)CC1`
[reply] > 8.00

[ask] Data request, read-out pIC50, for `CC(C)c1cccc(-n2c(-c3cc(-c4cnc5[nH]ccc5c4)ccn3)cn(C)c2=O)c1`
[reply] < 5.00

[ask] # lookup: pIC50 of `CN(C)C(=O)c1ccc(NC(=O)Nc2ccc(-c3nc(N4CCOCC4)c4ccc(-c5ccc(C(=O)N(C)C)o5)cc4n3)cc2)cc1`
[reply] > 7.30

* * *

Reported IC50 against Serine/threonine-protein kinase mTOR (Homo sapiens, UniProt P42345), gathered from multiple publications, appears below.

Study these solved cases before continuing.
• CN(C)C(=O)c1ccc(NC(=O)Nc2ccc(-c3nc(N4CCOCC4)c4ccc(-c5cnn(C)c5)cc4n3)c(F)c2)cc1 = < 0.05 µM
• Oc1ccc(-c2nc(N3CCOCC3)nc3c2ncn3Cc2ccccc2)cc1 = 1 to 5 µM
• CNC(=O)Nc1ccc(-c2nc(N3CCOCC3)c3cc(-c4cccc(NS(=O)(=O)CCCF)c4F)cc(OC)c3n2)cn1 = 0.001 to 0.1 µM
• c1cc(-c2nc(N3CCOCC3)nc3c2ncn3CC2CC2)c2cc[nH]c2c1 = < 1 µM
• CN(C)C(=O)c1ccc(NC(=O)Nc2ccc(-c3nc(N4CCOCC4)c4ccc(-c5cncnc5)cc4n3)cc2F)cc1 = < 0.05 µM

[ask] Request - read-out IC50 | tested on Serine/threonine-protein kinase mTOR (Homo sapiens, UniProt P42345) | compound `CC(C)(C#N)c1ccc(-c2nnc3cnc4ccc(-c5cnc6[nH]ncc6c5)cc4n23)cc1`
[reply] < 0.1 µM

[ask] GET /values?readout=IC50&system=Serine/threonine-protein kinase mTOR (Homo sapiens, UniProt P42345)&item= `CN1CCN(C(=O)c2ccc(NC(=O)Nc3ccc(-c4nc(N5CCOCC5)c5cc(F)c(-c6cccnc6)cc5n4)cc3F)cc2)CC1`
[reply] < 0.05 µM

[ask] State its IC50 on Serine/threonine-protein kinase mTOR (Homo sapiens, UniProt P42345): CCC(C)n1cnc2c(-c3ccc(N)nc3)nc(N3CCOCC3)nc21 (centres unmarked)
[reply] < 1 µM
